System Tested: Human immunodeficiency virus type 1 reverse transcriptase (Human immunodeficiency virus 1)
Test Protocol: Inhibition of recombinant HIV1 reverse transcriptase
pIC50: −log10 of the molar value.
Measured Parameter: pIC50

1. Cc1cn(C2OC(CO[Si](C)(C)C(C)(C)C)C3(OS(=O)(=O)C=C3N)C2O[Si](C)(C)C(C)(C)C)c(=O)n(CCCNC(=O)CNC(=O)[C@@H](N)C(C)C)c1=O (stereo partly specified)
2. Cc1cn(C2OC(CO[Si](C)(C)C(C)(C)C)C3(OS(=O)(=O)C=C3N)C2O[Si](C)(C)C(C)(C)C)c(=O)n(CCCNC(=O)[C@H](Cc2ccccc2)NC(=O)[C@@H](N)C(C)C)c1=O (stereo partly specified)
3. Cc1cn(C2OC(CO[Si](C)(C)C(C)(C)C)C3(OS(=O)(=O)C=C3N)C2O[Si](C)(C)C(C)(C)C)c(=O)n(CCCNC(=O)[C@H]2CCCN2C(=O)[C@@H](N)C(C)C)c1=O (stereo partly specified)
4. Cc1cn(C2OC(CO[Si](C)(C)C(C)(C)C)C3(OS(=O)(=O)C=C3N)C2O[Si](C)(C)C(C)(C)C)c(=O)n(CCCNC(=O)[C@@H]2CCCN2C(=O)CN)c1=O (stereo partly specified)
Problem: Using the list above, order everything by rising pIC50. I would appreciate it if you listed the labels in the requested order.
Result: 3, 4, 2, 1

---

System Tested: Dipeptidyl peptidase 4 (Homo sapiens, UniProt P27487)
Sequence (P27487 whole entry): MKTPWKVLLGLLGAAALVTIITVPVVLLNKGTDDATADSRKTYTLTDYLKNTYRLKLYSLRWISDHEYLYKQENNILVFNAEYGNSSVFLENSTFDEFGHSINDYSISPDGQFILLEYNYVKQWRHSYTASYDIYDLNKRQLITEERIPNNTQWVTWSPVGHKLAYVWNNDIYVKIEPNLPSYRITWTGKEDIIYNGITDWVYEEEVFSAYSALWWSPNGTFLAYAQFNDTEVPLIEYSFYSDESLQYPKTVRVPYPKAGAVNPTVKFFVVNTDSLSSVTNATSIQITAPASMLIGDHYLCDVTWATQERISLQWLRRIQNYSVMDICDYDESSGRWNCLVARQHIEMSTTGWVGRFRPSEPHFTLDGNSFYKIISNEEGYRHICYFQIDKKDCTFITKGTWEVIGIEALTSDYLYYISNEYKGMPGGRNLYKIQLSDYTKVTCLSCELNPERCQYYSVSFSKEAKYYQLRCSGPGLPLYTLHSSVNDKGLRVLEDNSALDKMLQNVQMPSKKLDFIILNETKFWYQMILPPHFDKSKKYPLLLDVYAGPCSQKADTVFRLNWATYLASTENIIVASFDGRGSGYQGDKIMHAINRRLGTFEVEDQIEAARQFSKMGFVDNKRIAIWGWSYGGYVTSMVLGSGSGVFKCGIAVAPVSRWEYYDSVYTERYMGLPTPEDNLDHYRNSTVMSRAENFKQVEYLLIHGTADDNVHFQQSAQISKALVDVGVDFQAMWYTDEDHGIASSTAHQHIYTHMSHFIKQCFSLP
Test Protocol: Conversion of prodrug to parent drug NAP-TSAO-T catalyzed by CD26 after 24 hrs
Assay type: ADME
Design: concentration or dose not given beside the values
Measured Parameter: Activity (%)

>  <Compound>
Cc1cn(C2OC(CO[Si](C)(C)C(C)(C)C)C3(OS(=O)(=O)C=C3N)C2O[Si](C)(C)C(C)(C)C)c(=O)n(CCCNC(=O)CNC(=O)[C@@H](N)C(C)C)c1=O (stereo not given in full)

>  <Reading Unit>
%

>  <Experimental Value>
0

$$$$
>  <Compound>
Cc1cn(C2OC(CO[Si](C)(C)C(C)(C)C)C3(OS(=O)(=O)C=C3N)C2O[Si](C)(C)C(C)(C)C)c(=O)n(CCCNC(=O)[C@@H]2C[C@@H](OCc3ccccc3)CN2C(=O)[C@@H](N)C(C)C)c1=O (stereo not given in full)

>  <Reading Unit>
%

>  <Experimental Value>
0

$$$$
>  <Compound>
Cc1cn(C2OC(CO[Si](C)(C)C(C)(C)C)C3(OS(=O)(=O)C=C3N)C2O[Si](C)(C)C(C)(C)C)c(=O)n(CCCNC(=O)[C@@H]2CCCN2C(=O)[C@@H](N)C(C)C)c1=O (stereo not given in full)

>  <Reading Unit>
%

>  <Experimental Value>
61

$$$$
>  <Compound>
Cc1cn(C2OC(CO[Si](C)(C)C(C)(C)C)C3(OS(=O)(=O)C=C3N)C2O[Si](C)(C)C(C)(C)C)c(=O)n(CCCNC(=O)[C@@H]2CCCN2C(=O)[C@H](C)N)c1=O (stereo not given in full)

>  <Reading Unit>
%

>  <Experimental Value>
88

$$$$

1. Cc1cn(C2OC(CO[Si](C)(C)C(C)(C)C)C3(OS(=O)(=O)C=C3N)C2O[Si](C)(C)C(C)(C)C)c(=O)n(CCCNC(=O)[C@@H]2CCCN2C(=O)[C@@H](NC(=O)OCc2ccccc2)C(C)C)c1=O (stereo not given in full)
2. Cc1cn(C2OC(CO[Si](C)(C)C(C)(C)C)C3(OS(=O)(=O)C=C3N)C2O[Si](C)(C)C(C)(C)C)c(=O)n(CCCNC(=O)[C@@H]2CCCN2C(=O)[C@@H](N)CCCCN)c1=O (stereo not given in full)
3. Cc1cn(C2OC(CO[Si](C)(C)C(C)(C)C)C3(OS(=O)(=O)C=C3N)C2O[Si](C)(C)C(C)(C)C)c(=O)n(CCCNC(=O)[C@@H]2CCCN2C(=O)[C@@H](N)Cc2ccccc2)c1=O (stereo not given in full)
4. Cc1cn(C2OC(CO[Si](C)(C)C(C)(C)C)C3(OS(=O)(=O)C=C3N)C2O[Si](C)(C)C(C)(C)C)c(=O)n(CCCNC(=O)[C@H]2CCCN2C(=O)[C@@H](N)C(C)C)c1=O (stereo not given in full)
5. Cc1cn(C2OC(CO[Si](C)(C)C(C)(C)C)C3(OS(=O)(=O)C=C3N)C2O[Si](C)(C)C(C)(C)C)c(=O)n(CCCNC(=O)[C@@H]2CCCN2C(=O)[C@@H](N)CC(=O)O)c1=O (stereo not given in full)
Problem: Order field: Activity | Direction: descending (largest first) Reply with the item labels sorted in the order that was asked for.
Result: 2, 3, 5, 4, 1
(2: 99%, 3: 58%, 5: 30%, 4: 4.2%, 1: 0%)
